Biological target: T1, soluble fusion protein comprising a DEC-205 extracellular domain (comprising all ten lectin-binding domains) … (human, UniProt O60449 28-1666)
T1 construct: not shown: antibody Fc domain
T1 sequence (O60449 28-1666 K1321N/Y1391H): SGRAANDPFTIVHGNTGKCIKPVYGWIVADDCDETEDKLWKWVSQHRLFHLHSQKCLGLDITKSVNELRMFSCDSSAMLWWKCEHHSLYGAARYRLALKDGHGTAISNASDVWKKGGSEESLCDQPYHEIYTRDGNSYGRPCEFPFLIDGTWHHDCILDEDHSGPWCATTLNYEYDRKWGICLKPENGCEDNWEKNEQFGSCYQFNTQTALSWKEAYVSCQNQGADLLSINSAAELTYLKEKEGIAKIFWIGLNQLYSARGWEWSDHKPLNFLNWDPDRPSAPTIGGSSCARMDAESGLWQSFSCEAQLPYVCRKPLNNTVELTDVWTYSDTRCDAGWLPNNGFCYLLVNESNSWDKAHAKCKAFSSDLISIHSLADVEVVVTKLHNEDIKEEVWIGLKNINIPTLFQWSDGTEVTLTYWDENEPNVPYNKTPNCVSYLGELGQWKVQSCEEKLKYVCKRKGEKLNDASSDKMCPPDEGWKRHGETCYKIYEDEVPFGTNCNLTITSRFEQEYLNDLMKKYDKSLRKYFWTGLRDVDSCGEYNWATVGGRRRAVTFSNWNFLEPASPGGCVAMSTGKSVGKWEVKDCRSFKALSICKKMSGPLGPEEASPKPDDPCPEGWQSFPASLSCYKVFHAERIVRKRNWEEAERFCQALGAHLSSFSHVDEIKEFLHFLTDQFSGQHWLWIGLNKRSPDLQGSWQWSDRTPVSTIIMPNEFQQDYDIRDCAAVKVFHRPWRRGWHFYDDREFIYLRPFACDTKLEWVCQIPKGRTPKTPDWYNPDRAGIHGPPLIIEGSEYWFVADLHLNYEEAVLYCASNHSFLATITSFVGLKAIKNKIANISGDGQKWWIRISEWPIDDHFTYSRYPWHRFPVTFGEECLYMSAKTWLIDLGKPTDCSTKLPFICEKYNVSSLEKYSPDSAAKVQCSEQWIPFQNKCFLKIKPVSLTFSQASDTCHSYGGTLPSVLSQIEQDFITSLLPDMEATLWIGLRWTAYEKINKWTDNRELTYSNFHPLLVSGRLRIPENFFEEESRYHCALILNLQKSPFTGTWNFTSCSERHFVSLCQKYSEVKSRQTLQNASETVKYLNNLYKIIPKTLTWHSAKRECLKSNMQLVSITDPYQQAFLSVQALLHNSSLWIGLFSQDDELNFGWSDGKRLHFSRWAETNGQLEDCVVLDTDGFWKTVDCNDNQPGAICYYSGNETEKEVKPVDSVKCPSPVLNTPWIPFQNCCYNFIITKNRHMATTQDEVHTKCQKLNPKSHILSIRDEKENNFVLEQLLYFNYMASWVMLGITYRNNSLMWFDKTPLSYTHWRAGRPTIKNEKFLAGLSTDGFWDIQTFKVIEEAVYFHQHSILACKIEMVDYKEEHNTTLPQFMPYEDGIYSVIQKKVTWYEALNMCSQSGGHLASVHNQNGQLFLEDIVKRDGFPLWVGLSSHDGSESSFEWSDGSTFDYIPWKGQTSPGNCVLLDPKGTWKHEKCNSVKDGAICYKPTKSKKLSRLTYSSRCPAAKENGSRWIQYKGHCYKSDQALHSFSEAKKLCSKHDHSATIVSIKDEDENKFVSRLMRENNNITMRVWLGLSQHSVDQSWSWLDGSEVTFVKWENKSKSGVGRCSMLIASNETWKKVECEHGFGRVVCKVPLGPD
Assay: SPR (Biacore 2000), DEC-205 fusion protein amine-coupled to CM5 chip, antibody flowed at 1.25-200 nM, 1:1 Langmuir fit, mean of two series
recorded.endpoint: kon (M⁻¹ s⁻¹)

{"binder": "5A8-1F1 (antibody, V domains shown, Human IgG (kappa) from a hybridoma, protein A purified; also called mAb #2; HuMab 5A8-1F1) VH: QVQLVESGGGVVQPGRSLRLSCAASGFTFSTYGMHWVRQAPGKGLEWVAIIWYDGGNKYYADSVKGRFTISRDNSKNTLYLQMNSLRAEDTAVYYCARDFYWYFDLWGRGTLVTVSS VL: EIVLTQSPATLSLSPGERATLSCRASQSVSSYLAWYQQKPGQAPRLLIYDASNRATGIPARFSGSGSGTDFTLTISSLEPEDFAVYYCQQRRTFGQGTKVEIK", "recorded.endpoint": "kon", "result": 360000}

Ref: patent US20090175880A1
